Just for reference, the supplement of paper PMC6555819 is where these values come from.

- System: LXRb:RXRa (NR concentration 270 nM, RXRa partner concentration 90 nM)
- experimental details: PBM binding z-score (relative to random genomic background probes); higher = stronger binding; sequences stand for … in GC…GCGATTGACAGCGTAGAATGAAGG
result type: PBM binding z-score

input: Suppose we examine the sequence `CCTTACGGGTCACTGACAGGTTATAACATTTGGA` ; what PBM binding z-score value has been reported?
output: 3.76

input: Given `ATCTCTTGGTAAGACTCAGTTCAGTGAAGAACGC` , state its recorded PBM binding z-score.
output: 0.676

input: Which PBM binding z-score is reported for this sequence? `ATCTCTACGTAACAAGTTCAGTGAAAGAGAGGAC`
output: 0.811

* * *

- Test system: LXRb:RXRa (NR concentration 270 nM, RXRa partner concentration 90 nM)
- experimental details: PBM binding z-score (relative to random genomic background probes); higher = stronger binding; sequences stand for … in GC…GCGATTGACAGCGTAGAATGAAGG
result type: PBM binding z-score
Please give the numeric answer without any surrounding text.

input: Write down the reported PBM binding z-score of `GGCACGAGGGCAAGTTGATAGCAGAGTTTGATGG` , test system: LXRb:RXRa (NR concentration 270 nM, RXRa partner concentration 90 nM).
output: 0.444

input: Notebook: pull reported PBM binding z-score for LXRb:RXRa (NR concentration 270 nM, RXRa partner concentration 90 nM), entry `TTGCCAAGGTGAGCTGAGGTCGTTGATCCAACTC`
output: 0.415

input: Lab request: please report PBM binding z-score under test system LXRb:RXRa (NR concentration 270 nM, RXRa partner concentration 90 nM) for `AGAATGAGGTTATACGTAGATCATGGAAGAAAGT`
output: 1.76

input: Fill in the recorded PBM binding z-score for this sequence, with LXRb:RXRa (NR concentration 270 nM, RXRa partner concentration 90 nM) as test system: `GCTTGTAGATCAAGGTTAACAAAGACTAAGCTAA`
output: 0.96

input: Query PBM binding z-score on LXRb:RXRa (NR concentration 270 nM, RXRa partner concentration 90 nM) for `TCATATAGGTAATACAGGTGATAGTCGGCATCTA`
output: 0.789

input: # returns recorded PBM binding z-score (system: LXRb:RXRa (NR concentration 270 nM, RXRa partner concentration 90 nM)) for `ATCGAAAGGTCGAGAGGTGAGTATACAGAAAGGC`
output: 2.63

input: # returns recorded PBM binding z-score (system: LXRb:RXRa (NR concentration 270 nM, RXRa partner concentration 90 nM)) for `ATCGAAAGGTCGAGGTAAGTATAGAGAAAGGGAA`
output: 2.66

input: Notebook entry, LXRb:RXRa (NR concentration 270 nM, RXRa partner concentration 90 nM) assay: PBM binding z-score of `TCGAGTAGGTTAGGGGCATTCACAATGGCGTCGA` = ?
output: 0.973

input: Reported PBM binding z-score for LXRb:RXRa (NR concentration 270 nM, RXRa partner concentration 90 nM), given `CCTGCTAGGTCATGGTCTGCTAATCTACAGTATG` ?
output: 1.97

input: Enter reported PBM binding z-score observed with LXRb:RXRa (NR concentration 270 nM, RXRa partner concentration 90 nM) for `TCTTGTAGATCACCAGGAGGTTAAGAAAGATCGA`
output: 0.866

input: Form field - read-out: PBM binding z-score; system: LXRb:RXRa (NR concentration 270 nM, RXRa partner concentration 90 nM); submitted item: `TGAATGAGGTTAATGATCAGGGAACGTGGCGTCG`
output: 0.692

input: What reported PBM binding z-score corresponds to `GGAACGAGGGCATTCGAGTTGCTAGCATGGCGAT` on LXRb:RXRa (NR concentration 270 nM, RXRa partner concentration 90 nM)?
output: -0.157

input: Write down the reported PBM binding z-score of `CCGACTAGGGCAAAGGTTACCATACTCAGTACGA` , test system: LXRb:RXRa (NR concentration 270 nM, RXRa partner concentration 90 nM).
output: 2.49

input: Lookup: PBM binding z-score / LXRb:RXRa (NR concentration 270 nM, RXRa partner concentration 90 nM) / `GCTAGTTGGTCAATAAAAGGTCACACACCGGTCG`
output: 4.53

input: Provide value of PBM binding z-score for this record tested with LXRb:RXRa (NR concentration 270 nM, RXRa partner concentration 90 nM): `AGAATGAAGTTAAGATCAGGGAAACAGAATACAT`
output: -0.14

input: Request: PBM binding z-score, test system LXRb:RXRa (NR concentration 270 nM, RXRa partner concentration 90 nM), entry `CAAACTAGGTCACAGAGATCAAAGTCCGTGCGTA`
output: 2.41

input: Given the entry `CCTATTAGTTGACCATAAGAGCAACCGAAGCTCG` , what PBM binding z-score was observed with LXRb:RXRa (NR concentration 270 nM, RXRa partner concentration 90 nM)?
output: 0.594

input: Item `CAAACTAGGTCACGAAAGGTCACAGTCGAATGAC` with LXRb:RXRa (NR concentration 270 nM, RXRa partner concentration 90 nM) - PBM binding z-score?
output: 6.82

input: Given the entry `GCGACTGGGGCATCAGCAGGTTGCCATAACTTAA` , what PBM binding z-score was observed with LXRb:RXRa (NR concentration 270 nM, RXRa partner concentration 90 nM)?
output: -0.443

input: # query: PBM binding z-score | item `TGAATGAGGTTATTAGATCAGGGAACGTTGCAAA` | system: LXRb:RXRa (NR concentration 270 nM, RXRa partner concentration 90 nM)
output: 1.3

input: Find PBM binding z-score (LXRb:RXRa (NR concentration 270 nM, RXRa partner concentration 90 nM)) for the entry `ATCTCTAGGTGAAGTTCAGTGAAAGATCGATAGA`
output: 0.0201

input: Give PBM binding z-score (LXRb:RXRa (NR concentration 270 nM, RXRa partner concentration 90 nM)) of the following sequence: `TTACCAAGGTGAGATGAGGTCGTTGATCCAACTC`
output: 1.1

input: # query: PBM binding z-score | item `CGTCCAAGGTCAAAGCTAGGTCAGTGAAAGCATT` | system: LXRb:RXRa (NR concentration 270 nM, RXRa partner concentration 90 nM)
output: 4.54

input: API: value(readout= PBM binding z-score, system= LXRb:RXRa (NR concentration 270 nM, RXRa partner concentration 90 nM), query= `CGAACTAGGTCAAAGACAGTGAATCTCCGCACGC` )
output: 1.66

input: Lab note: need PBM binding z-score with LXRb:RXRa (NR concentration 270 nM, RXRa partner concentration 90 nM) for entry `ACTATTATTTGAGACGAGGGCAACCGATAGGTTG` , please look it up.
output: 0.748

input: # get_value(readout= PBM binding z-score, system= LXRb:RXRa (NR concentration 270 nM, RXRa partner concentration 90 nM)) for `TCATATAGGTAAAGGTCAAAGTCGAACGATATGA`
output: 5.5

input: Identify the measured PBM binding z-score of `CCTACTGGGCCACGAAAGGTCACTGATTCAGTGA` for LXRb:RXRa (NR concentration 270 nM, RXRa partner concentration 90 nM).
output: 3.75

input: What measured PBM binding z-score is associated with `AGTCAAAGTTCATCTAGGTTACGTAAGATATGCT` on LXRb:RXRa (NR concentration 270 nM, RXRa partner concentration 90 nM)?
output: 3.95

input: Tell me reported PBM binding z-score for `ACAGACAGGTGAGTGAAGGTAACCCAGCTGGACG` , tested with LXRb:RXRa (NR concentration 270 nM, RXRa partner concentration 90 nM).
output: -0.271

input: Please state recorded PBM binding z-score (tested on LXRb:RXRa (NR concentration 270 nM, RXRa partner concentration 90 nM)) of `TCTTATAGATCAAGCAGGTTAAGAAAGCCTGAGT`
output: 0.19

input: Reported PBM binding z-score for LXRb:RXRa (NR concentration 270 nM, RXRa partner concentration 90 nM), given `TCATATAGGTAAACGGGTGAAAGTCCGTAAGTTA` ?
output: 0.834

input: # returns recorded PBM binding z-score (system: LXRb:RXRa (NR concentration 270 nM, RXRa partner concentration 90 nM)) for `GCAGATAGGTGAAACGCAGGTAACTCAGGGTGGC`
output: -0.0922

input: API: value(readout= PBM binding z-score, system= LXRb:RXRa (NR concentration 270 nM, RXRa partner concentration 90 nM), query= `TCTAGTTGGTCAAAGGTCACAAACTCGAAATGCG` )
output: 5.16

input: Item `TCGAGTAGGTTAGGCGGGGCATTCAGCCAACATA` with LXRb:RXRa (NR concentration 270 nM, RXRa partner concentration 90 nM) - PBM binding z-score?
output: 0.946

input: Recorded PBM binding z-score for `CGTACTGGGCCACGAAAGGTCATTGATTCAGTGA` with LXRb:RXRa (NR concentration 270 nM, RXRa partner concentration 90 nM), please?
output: 4.46

input: API: value(readout=PBM binding z-score, system=LXRb:RXRa (NR concentration 270 nM, RXRa partner concentration 90 nM)) for record `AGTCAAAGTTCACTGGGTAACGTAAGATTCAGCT`
output: 2.98

input: Short answer please: PBM binding z-score, LXRb:RXRa (NR concentration 270 nM, RXRa partner concentration 90 nM), entry `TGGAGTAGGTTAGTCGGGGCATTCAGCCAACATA`
output: 1.05
